conditions: in ethanol, 313.15 K
measurement_label: solubility (mole fraction)
Numbers only.

For this compound ( "c1ccc2c(c1)Cc1ccccc1-2" ), measured solubility (mole fraction) is 0.0132

###

settings: in ethyl formate, 298.15 K
measurement_label: solubility (mole fraction)

For this molecule ( "c1ccc2c(c1)Cc1ccccc1-2" ), measured solubility (mole fraction) is 0.0654

###

conditions: in isobutyl acetate, 308.15 K
measurement_label: solubility (mole fraction)
Numbers only.

For this molecule ( "c1ccc2c(c1)Cc1ccccc1-2" ), measured solubility (mole fraction) is 0.124

###

settings: in isopropanol, 298.15 K
measurement_label: solubility (mole fraction)

For this compound ( "c1ccc2c(c1)Cc1ccccc1-2" ), measured solubility (mole fraction) is 0.00808

###

settings: in isobutyl acetate, 313.15 K
measurement_label: solubility (mole fraction)
Numbers only.

For this compound ( "c1ccc2c(c1)Cc1ccccc1-2" ), measured solubility (mole fraction) is 0.142

###

conditions: in n-butyl acetate, 298.15 K
measurement_label: solubility (mole fraction)
Numbers only.

For this compound ( "c1ccc2c(c1)Cc1ccccc1-2" ), measured solubility (mole fraction) is 0.111

###

settings: in acetonitrile, 278.15 K
measurement_label: solubility (mole fraction)
Numbers only.

For this compound ( "c1ccc2c(c1)Cc1ccccc1-2" ), measured solubility (mole fraction) is 0.0101

###

settings: in n-propanol, 303.15 K
measurement_label: solubility (mole fraction)
Numbers only.

For this compound ( "c1ccc2c(c1)Cc1ccccc1-2" ), measured solubility (mole fraction) is 0.013

###

conditions: in ethyl formate, 303.15 K
measurement_label: solubility (mole fraction)
One number for each entry.

For this compound ( "c1ccc2c(c1)Cc1ccccc1-2" ), measured solubility (mole fraction) is 0.0781

###

settings: in n-butyl acetate, 308.15 K
measurement_label: solubility (mole fraction)
Give bare numbers.

For this compound ( "c1ccc2c(c1)Cc1ccccc1-2" ), measured solubility (mole fraction) is 0.146

###

details: in ethyl formate, 278.15 K
measurement_label: solubility (mole fraction)

For this compound ( "c1ccc2c(c1)Cc1ccccc1-2" ), measured solubility (mole fraction) is 0.0346

###

settings: in methanol, 293.15 K
measurement_label: solubility (mole fraction)
Answers are plain numbers.

For this compound ( "c1ccc2c(c1)Cc1ccccc1-2" ), measured solubility (mole fraction) is 0.00313

###

details: in n-butyl acetate, 288.15 K
measurement_label: solubility (mole fraction)
Answers are plain numbers.

For this compound ( "c1ccc2c(c1)Cc1ccccc1-2" ), measured solubility (mole fraction) is 0.0874

###

conditions: in ethyl acetate, 278.15 K
measurement_label: solubility (mole fraction)

For this compound ( "c1ccc2c(c1)Cc1ccccc1-2" ), measured solubility (mole fraction) is 0.046

###

details: in isopropyl acetate, 318.15 K
measurement_label: solubility (mole fraction)

For this compound ( "c1ccc2c(c1)Cc1ccccc1-2" ), measured solubility (mole fraction) is 0.148

###

settings: in methyl acetate, 308.15 K
measurement_label: solubility (mole fraction)
Answers are plain numbers.

For this molecule ( "c1ccc2c(c1)Cc1ccccc1-2" ), measured solubility (mole fraction) is 0.1

###

settings: in isopropanol, 313.15 K
measurement_label: solubility (mole fraction)
Give bare numbers.

For this compound ( "c1ccc2c(c1)Cc1ccccc1-2" ), measured solubility (mole fraction) is 0.0149

###

conditions: in isopropanol, 288.15 K
measurement_label: solubility (mole fraction)
Give bare numbers.

For this compound ( "c1ccc2c(c1)Cc1ccccc1-2" ), measured solubility (mole fraction) is 0.00559
